experimental system: Cdk6/CycD1 (Homo sapiens, UniProt Q00534)
Sequence (Q00534 whole entry): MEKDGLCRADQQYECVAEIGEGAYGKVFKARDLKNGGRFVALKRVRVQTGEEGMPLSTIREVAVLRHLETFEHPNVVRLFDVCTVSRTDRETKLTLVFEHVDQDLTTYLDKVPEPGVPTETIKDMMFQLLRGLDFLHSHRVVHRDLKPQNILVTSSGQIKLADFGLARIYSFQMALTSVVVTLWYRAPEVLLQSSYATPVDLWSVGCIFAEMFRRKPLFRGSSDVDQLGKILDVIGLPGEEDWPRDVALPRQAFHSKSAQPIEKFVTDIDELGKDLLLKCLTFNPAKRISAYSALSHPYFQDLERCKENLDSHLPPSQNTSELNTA
Sequence (P24385 whole entry partner): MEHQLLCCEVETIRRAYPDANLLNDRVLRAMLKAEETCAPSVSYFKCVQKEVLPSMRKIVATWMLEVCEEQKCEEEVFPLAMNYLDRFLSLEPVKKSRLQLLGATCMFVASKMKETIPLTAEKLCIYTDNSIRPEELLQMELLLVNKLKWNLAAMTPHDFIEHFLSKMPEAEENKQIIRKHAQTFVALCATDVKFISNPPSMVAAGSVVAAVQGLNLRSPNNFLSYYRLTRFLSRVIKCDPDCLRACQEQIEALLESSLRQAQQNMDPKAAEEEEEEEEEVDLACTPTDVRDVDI
measurement description: In vitro kinase profile (ProQinase)
pIC50: −log10 of the molar value.

molecule	relation	pIC50
CC(C)c1n[nH]c2c(NCc3ccccc3)nc(NC3CCCCC3N)nc12 (centres unmarked)	<	4.00
CC(C)c1n[nH]c2c(NCc3ccccc3)nc(NC3CCC(N)CC3)nc12 (centres unmarked)	=	4.04

###

The following molecules are shown together with reported pIC50 values.
experimental system: Cdk2/CycE (Homo sapiens)
measurement description: In vitro kinase profile (ProQinase)
pIC50: −log10 of the molar value.
readout type: pIC50

molecule	result number
CC(C)c1n[nH]c2c(NCc3ccccc3)nc(NC3CCC(N)CC3)nc12 (centres unmarked) [LGR 1407]	6.00
CC(C)c1n[nH]c2c(NCc3ccccc3)nc(NC3CCCCC3N)nc12 (centres unmarked) [LGR 1406]	6.23

###

Recorded measurements of IC50, one per entry
experimental system: Cdk7/CycH/MAT1 (Homo sapiens)
Sequence (P50613 whole entry): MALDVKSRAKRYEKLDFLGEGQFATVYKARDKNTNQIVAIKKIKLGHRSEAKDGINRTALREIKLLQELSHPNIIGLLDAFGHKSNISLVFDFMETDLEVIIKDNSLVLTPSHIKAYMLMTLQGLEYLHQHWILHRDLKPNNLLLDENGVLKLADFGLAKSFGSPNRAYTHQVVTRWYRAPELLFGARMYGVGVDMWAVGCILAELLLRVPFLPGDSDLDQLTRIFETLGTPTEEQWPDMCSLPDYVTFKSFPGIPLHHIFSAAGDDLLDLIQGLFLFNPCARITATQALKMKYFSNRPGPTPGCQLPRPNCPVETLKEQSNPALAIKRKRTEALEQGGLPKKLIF
Sequence (P51946 whole entry partner): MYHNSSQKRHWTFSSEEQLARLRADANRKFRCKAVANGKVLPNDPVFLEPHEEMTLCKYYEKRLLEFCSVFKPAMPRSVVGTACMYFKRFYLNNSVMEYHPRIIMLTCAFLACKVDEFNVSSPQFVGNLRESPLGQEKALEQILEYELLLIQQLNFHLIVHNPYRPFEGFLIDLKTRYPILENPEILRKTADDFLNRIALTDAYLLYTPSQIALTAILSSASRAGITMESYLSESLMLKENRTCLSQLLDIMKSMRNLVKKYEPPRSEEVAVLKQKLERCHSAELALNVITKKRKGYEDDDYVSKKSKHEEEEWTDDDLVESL
Sequence (P51948 whole entry partner): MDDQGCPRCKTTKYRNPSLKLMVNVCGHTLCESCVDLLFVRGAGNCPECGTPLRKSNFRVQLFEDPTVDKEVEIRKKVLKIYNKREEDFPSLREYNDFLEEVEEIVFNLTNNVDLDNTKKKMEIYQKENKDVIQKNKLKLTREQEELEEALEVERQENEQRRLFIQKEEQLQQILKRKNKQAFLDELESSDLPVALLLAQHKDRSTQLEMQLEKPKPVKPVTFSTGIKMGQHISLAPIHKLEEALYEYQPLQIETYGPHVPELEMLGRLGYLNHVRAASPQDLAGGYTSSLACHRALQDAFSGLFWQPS
measurement description: In vitro kinase profile (ProQinase)
readout type: IC50

compound	readout type	result
CC(C)c1n[nH]c2c(NCc3ccccc3)nc(NC3CCCCC3N)nc12 (centres unmarked)	IC50	> 100 µM
CC(C)c1n[nH]c2c(NCc3ccccc3)nc(NC3CCC(N)CC3)nc12 (centres unmarked)	IC50	> 100 µM

###

Test system: HUVECs
measurement description: Scratch assay (migration assay)
Assay type: cell-based, human
details: 10 µM, 16 h, HUVECs
readout type: effect on endothelial cell migration (in words)

molecule	result
CC(C)c1n[nH]c2c(NCc3ccccc3)nc(NC3CCC(N)CC3)nc12 (stereo not shown) [LGR 1407]	significantly decrease
CC(C)c1n[nH]c2c(NCc3ccccc3)nc(NC3CCCCC3N)nc12 (stereo not shown) [LGR 1406]	significantly decrease
CC[C@H](CO)Nc1nc(NCc2ccccc2)c2n[nH]c(C(C)C)c2n1 [LGR 1404]	significantly decrease

###

Below is a list of entries, each paired with its recorded IC50 value.
Tested on: HMEC-1 cells
measurement description: Crystal violet proliferation assay
Assay type: cell-based, human
details: Homo sapiens, HMEC-1, 72 h, read-out: IC50 endothelial cell proliferation

compound	units	IC50
CC(C)c1n[nH]c2c(NCc3ccccc3)nc(NC3CCC(N)CC3)nc12 (stereo not shown) [LGR 1407]	µM	3.66
CC(C)c1n[nH]c2c(NCc3ccccc3N)nc(NC[C@H](C)O)nc12 [LGR 1695]	µM	10.2
CC(C)c1n[nH]c2c(NCc3ccccc3)nc(NC[C@@H](C)O)nc12 [LGR 1667]	µM	9.54
CC[C@H](CO)Nc1nc(NCc2ccccc2)c2n[nH]c(C(C)C)c2n1 [LGR 1404]	µM	7.72
CC(C)c1n[nH]c2c(NCc3ccccc3N)nc(NC3CCCCC3N)nc12 (stereo not shown) [LGR 1430]	µM	6.16

###

experimental system: FAK (Homo sapiens, UniProt Q05397)
Sequence (Q05397 whole entry): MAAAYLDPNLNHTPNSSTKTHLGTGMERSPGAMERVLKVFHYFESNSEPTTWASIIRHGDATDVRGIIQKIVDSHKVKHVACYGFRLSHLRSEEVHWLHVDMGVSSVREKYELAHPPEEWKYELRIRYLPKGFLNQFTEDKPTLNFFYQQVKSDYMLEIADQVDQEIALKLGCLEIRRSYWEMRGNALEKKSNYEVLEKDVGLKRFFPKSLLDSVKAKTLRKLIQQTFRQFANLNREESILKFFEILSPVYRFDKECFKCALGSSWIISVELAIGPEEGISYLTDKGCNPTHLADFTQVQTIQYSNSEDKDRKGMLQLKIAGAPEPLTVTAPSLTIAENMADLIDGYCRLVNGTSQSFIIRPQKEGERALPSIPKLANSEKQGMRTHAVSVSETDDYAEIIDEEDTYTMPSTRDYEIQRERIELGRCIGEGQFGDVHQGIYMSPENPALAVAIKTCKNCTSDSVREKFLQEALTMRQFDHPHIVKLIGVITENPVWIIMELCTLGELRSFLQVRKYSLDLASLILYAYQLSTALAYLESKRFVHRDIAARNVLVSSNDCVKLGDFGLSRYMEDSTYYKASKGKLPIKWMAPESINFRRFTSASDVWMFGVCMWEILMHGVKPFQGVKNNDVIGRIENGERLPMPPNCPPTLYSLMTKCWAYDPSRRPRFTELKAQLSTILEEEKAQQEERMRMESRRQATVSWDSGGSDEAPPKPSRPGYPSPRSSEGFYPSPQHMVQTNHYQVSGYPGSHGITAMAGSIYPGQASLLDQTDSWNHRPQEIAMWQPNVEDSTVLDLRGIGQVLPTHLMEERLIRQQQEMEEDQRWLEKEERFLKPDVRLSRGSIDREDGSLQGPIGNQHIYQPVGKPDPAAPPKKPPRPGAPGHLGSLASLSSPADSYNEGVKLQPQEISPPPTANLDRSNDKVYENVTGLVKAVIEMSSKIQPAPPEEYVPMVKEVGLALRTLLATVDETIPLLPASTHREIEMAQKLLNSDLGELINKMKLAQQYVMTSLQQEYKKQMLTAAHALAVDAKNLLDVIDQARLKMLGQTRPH
readout type: IC50

compound	result
CC(C)c1n[nH]c2c(NCc3ccccc3)nc(NC3CCCCC3N)nc12 (stereo not shown)	< 10 µM

###

experimental system: Cdk1/CycB (Homo sapiens, UniProt P06493)
Construct: purchased ProQinase (Freiburg, Germany)
Sequence (P06493 whole entry): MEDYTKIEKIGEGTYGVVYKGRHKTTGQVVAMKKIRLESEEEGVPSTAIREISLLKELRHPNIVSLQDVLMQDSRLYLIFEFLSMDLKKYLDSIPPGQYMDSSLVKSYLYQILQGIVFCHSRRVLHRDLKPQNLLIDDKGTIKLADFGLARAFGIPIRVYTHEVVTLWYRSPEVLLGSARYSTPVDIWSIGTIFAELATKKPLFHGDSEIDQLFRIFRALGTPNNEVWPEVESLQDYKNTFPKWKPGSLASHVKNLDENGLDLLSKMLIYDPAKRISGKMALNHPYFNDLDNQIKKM
Sequence (P14635 whole entry partner): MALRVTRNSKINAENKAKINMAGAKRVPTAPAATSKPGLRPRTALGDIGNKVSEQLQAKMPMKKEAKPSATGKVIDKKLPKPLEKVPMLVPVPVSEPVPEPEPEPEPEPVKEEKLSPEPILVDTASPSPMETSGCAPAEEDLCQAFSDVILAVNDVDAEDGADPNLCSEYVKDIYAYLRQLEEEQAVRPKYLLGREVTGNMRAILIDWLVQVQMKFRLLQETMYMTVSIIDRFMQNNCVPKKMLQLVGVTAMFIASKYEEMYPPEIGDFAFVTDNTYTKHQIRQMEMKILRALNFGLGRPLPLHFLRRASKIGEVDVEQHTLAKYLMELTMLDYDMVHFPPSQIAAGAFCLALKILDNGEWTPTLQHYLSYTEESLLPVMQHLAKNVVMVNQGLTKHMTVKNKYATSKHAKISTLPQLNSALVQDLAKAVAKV
measurement description: In vitro kinase profile (ProQinase)
Assay type: biochemical
Experimental: Therefore, it was of interest to see which kinases, especially which Cdks, are inhibited by those compounds. The kinase profiling was performed by ProQinase (Freiburg, Germany) for LGR 1406 and 1407. For LGR 1404 kinase profiling has recently been published previously. LGR 1406 and 1407 were tested for their IC50 in a panel of 24 kinases, including the Cdk1, Cdk2, Cdk4, Cdk5, Cdk6, Cdk7 and Cdk9. […]
pIC50: −log10 of the molar value.

compound	pIC50
CC(C)c1n[nH]c2c(NCc3ccccc3)nc(NC3CCCCC3N)nc12 (centres unmarked)	5.49
CC(C)c1n[nH]c2c(NCc3ccccc3)nc(NC3CCC(N)CC3)nc12 (centres unmarked)	5.24

###

experimental system: Aurora kinase A (Homo sapiens)
Sequence (O14965 1-403): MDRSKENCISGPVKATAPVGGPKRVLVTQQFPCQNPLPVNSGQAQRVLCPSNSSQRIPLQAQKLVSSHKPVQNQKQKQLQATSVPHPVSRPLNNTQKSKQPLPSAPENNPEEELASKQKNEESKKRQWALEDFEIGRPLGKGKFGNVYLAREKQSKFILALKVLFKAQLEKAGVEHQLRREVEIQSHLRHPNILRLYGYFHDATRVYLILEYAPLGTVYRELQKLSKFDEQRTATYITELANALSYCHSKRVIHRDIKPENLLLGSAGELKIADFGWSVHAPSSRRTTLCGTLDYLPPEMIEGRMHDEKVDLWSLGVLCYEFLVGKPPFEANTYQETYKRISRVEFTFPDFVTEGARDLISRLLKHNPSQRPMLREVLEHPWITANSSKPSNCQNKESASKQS
pIC50: −log10 of the molar value.
Form field: pIC50 (one value per entry).

compound	experimental system	pIC50
CC(C)c1n[nH]c2c(NCc3ccccc3)nc(NC3CCC(N)CC3)nc12 (centres unmarked)	Aurora kinase A (Homo sapiens)	≥ 5.00
CC(C)c1n[nH]c2c(NCc3ccccc3)nc(NC3CCCCC3N)nc12 (centres unmarked)	Aurora kinase A (Homo sapiens)	> 5.00

###

experimental system: Cdk2/CycA (Homo sapiens)
measurement description: In vitro kinase profile (ProQinase)
Protocol: Therefore, it was of interest to see which kinases, especially which Cdks, are inhibited by those compounds. The kinase profiling was performed by ProQinase (Freiburg, Germany) for LGR 1406 and 1407. For LGR 1404 kinase profiling has recently been published previously. LGR 1406 and 1407 were tested for their IC50 in a panel of 24 kinases, including the Cdk1, Cdk2, Cdk4, Cdk5, Cdk6, Cdk7 and Cdk9. […]
Quick reference for IC50 among some compounds
readout type: IC50 (µM)

compound	result number
CC(C)c1n[nH]c2c(NCc3ccccc3)nc(NC3CCC(N)CC3)nc12 (centres unmarked)	1.5
CC(C)c1n[nH]c2c(NCc3ccccc3)nc(NC3CCCCC3N)nc12 (centres unmarked)	0.99

###

experimental system: Cdk4/CycD1 (Homo sapiens, UniProt P11802)
Sequence (P11802 whole entry): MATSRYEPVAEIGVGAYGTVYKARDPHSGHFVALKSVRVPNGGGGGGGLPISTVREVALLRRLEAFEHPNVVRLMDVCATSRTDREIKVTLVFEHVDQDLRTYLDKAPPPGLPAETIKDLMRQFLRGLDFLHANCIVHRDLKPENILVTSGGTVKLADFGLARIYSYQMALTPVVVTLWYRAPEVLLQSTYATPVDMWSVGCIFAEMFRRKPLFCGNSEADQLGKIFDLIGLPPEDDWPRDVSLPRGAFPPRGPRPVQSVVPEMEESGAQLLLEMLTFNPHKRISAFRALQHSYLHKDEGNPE
Sequence (P24385 whole entry partner): as the sequence (P24385 whole entry partner) above
measurement description: In vitro kinase profile (ProQinase)
This listing pairs compounds with measured IC50.

compound	experimental system	IC50 / µM
CC(C)c1n[nH]c2c(NCc3ccccc3)nc(NC3CCCCC3N)nc12 (centres unmarked)	Cdk4/CycD1 (Homo sapiens, UniProt P11802)	15
CC(C)c1n[nH]c2c(NCc3ccccc3)nc(NC3CCC(N)CC3)nc12 (centres unmarked)	Cdk4/CycD1 (Homo sapiens, UniProt P11802)	66
